Test system: DMS-114
Assay: NCI tumour cell line growth inhibition, 48 h
Calls of active or inactive are those of the source. No stated cut-off is given here; in the data, active = GI50 up to about 1.1 µM and inactive = higher.
Select the correct class. Options are class 1 for active, class 0 for inactive and nothing else.

Sample answers from the record:
O=C(CSc1nnc(-c2ccc(/N=C\c3ccc(Cl)cc3)cc2)o1)Nc1ccccc1[N+](=O)[O-]; class 0
O=C(O)CSc1nnc(-c2ccc(O)cc2)[nH]1; class 0
COc1ccc2nc3ccccc3c(NCCN(C)CCCl)c2c1; class 1
CCC(/C(=N/NC(=O)C[N+](C)(C)C)c1ccccc1)C1OC(=O)c2ccccc21 (stereo not given); class 0
CCOC(=O)CC[C@H](NC(=O)c1nc[nH]c1[N+](=O)[O-])C(=O)OCC; class 0
CN(C)C(=N/O)/C(=N\O)N(C)C; class 0

What is the recorded call for this compound in the test? CCCCCCCCCCCC(=O)OCC1OC(n2cc(F)c(=O)[nH]c2=O)C(N)C(OC(=O)CCCCCCCCCCC)C1O (stereo not given)
class 0

What is the recorded call for this compound in the test? Cc1cc2nc3c(C(OC4OC(CO)C(O)C(O)C4O)C(O)CO)nn(-c4ccc(F)cc4)c3nc2cc1C (stereo not given)
class 0

What is the recorded call for this compound in the test? COc1ccc(CC(C)N)cc1 (stereo not given)
class 0

What is the recorded call for this compound in the test? `CCOC(=O)/N=c1\ss/c(=N\C(=S)N(C)C)n1-c1ccccc1`
class 1
